Biological target: T1, human BCMA on BCMA expressing cell lines (human, UniProt Q02223 1-184)
T1 sequence: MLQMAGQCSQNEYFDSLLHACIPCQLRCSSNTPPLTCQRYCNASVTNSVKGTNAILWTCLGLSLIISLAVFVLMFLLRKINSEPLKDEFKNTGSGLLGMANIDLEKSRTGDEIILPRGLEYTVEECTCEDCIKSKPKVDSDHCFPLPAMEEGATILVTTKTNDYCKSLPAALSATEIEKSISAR
Assay: cell-based or functional assay
// reported TDCC EC50 (EJM cells) per item
Express the result in nM but write the number alone.

Binder: BCMA targeting trispecific protein 01A09 (other, not shown: large carriers; small tags and cut ends, trispecific) VHH: EVQLVESGGGLVQPGRSLTLSCAASTNIFSITPMGWYRQAPGKQRELVAAIHGRSTLYADSVKGRFTISRDNAKNSIYLQMNSLRPEDTALYYCNKVPWGSYHPRNVYWGQGTQVTVSS
TDCC EC50 (EJM cells), nM: 0.0484
//
Binder: BCMA targeting trispecific protein 01E03 (other, not shown: large carriers; small tags and cut ends, trispecific) VHH: EVQLVESGGGLVQPGRSLTLSCAASTNITSISPMGWYRQAPGKQRELVAAIHGDSTLYADSVKGRFTISRDNAKNSIYLQMNSLRPEDTALYYCNKVPWGDYHPGNVYWGQGTQVTVSS
TDCC EC50 (EJM cells), nM: 0.00298
//
Binder: BCMA targeting trispecific protein 01B04 (other, trispecific; not shown: anti-albumin domain, anti-CD3 domain and the linkers of the trispecific (TriTAC) chain; the C-terminal 6xHis tag follows these missing domains and is left out) VHH: EVQLVESGGGLVQPGRSLTLSCAASTNDFSISPMGWYRQAPGKQRELVAAIHGKSTLYADSVKGRFTISRDNAKNSIYLQMNSLRPEDTALYYCNKVPWGDYHPRNVKWGQGTQVTVSS
TDCC EC50 (EJM cells), nM: 0.0161

TDCC EC50 (EJM cells) for BCMA targeting trispecific protein 02G09 (other, trispecific; not shown: The C-terminal 6xHis tag is left out because it follows these missing domains) VHH: EVQLVESGGGLVQPGRSLTLSCAASTNIFSDSPMGWYRQAPGKQRELVAAIHGFSTLYADSVKGRFTISRDNAKNSIYLQMNSLRPEDTALYYCNKVPWGDYHPRNVAWGQGTQVTVSS ? 0.0396
